The reported measurements were obtained from PubChem BioAssay AID1963825.

# viability, T/C values compiled below
measurement-description: Anticancer human tumor 997537-175-T-J1-PDC patient-derived colon adenocarcinoma cell line growth inhibition [POLQ]
condition-set: 997537-175-T-J1-PDC complex spheroid viability, combination with POLQ inhibitors; second compound 0.316 µM; first compound 10 µM; stronger effect = lower value
Provide the reading as a plain figure in %.

- compound: "COc1ccc([C@@H](O)c2cc(-c3ncnc4cc(N5CCOCC5)ccc34)c(F)cc2Cl)nn1 + Cc1cccc(N(C)C(=O)C2C(O)CCN2c2nc(C)cc(C(F)(F)F)c2C#N)c1"
  unit-abbreviation: "%"
  numeric-value: 82.9
- compound: "COc1ccc([C@@H](O)c2cc(-c3ncnc4cc(N5CCOCC5)ccc34)c(F)cc2Cl)nn1 + Nc1ccc(C#CCN(C(=O)Cc2ncc(C(F)(F)F)cc2C(F)(F)F)c2ccc(F)cc2)nn1"
  unit-abbreviation: "%"
  numeric-value: 65.6

GET /value?item= CC1COCCN1c1cc(C2(O)CC3CCC(C2)O3)c2cnn(-c3ccn[nH]3)c2n1 (stereo not given) + Cc1cccc(N(C)C(=O)C2C(O)CCN2c2nc(C)cc(C(F)(F)F)c2C#N)c1 &field=viability, T/C returns 47.6

GET /value?item= C#Cc1c(F)ccc2cc(O)cc(-c3ncc4c(N5CC6CCC(C5)N6)nc(OCC56CCCN5CC(F)C6)nc4c3F)c12 (stereo not given) + COC1C(OC(N)=O)C(O)C(Oc2ccc3c(O)c(NC(=O)c4ccc(O)c(CC=C(C)C)c4)c(=O)oc3c2C)OC1(C)C &field=viability, T/C returns 98.4

GET /value?item= O=C(c1cc(Cc2n[nH]c(=O)c3ccccc23)ccc1F)N1CCN(C(=O)C2CC2)CC1 + Cc1cccc(N(C)C(=O)C2C(O)CCN2c2nc(C)cc(C(F)(F)F)c2C#N)c1 &field=viability, T/C returns 110

GET /value?item= CCc1cc2c(N3CCc4c(cc(Cn5ccnc5)cc4-c4cn(C)nc4C(F)(F)F)C3=O)ccnc2c(OC)n1 + COC1C(OC(N)=O)C(O)C(Oc2ccc3c(O)c(NC(=O)c4ccc(O)c(CC=C(C)C)c4)c(=O)oc3c2C)OC1(C)C &field=viability, T/C returns 52.1

* * *

measurement-description: Anticancer human tumor 997537-175-T-J1-PDC cell line growth inhibition [POLQ];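 further: luminescence signal used as a surrogate for viable cells; spheroids exposed to drugs for seven days before readout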
condition-set: 997537-175-T-J1-PDC complex spheroid viability, combination with POLQ inhibitors; second compound 0.1 µM; first compound 10 µM; stronger effect = lower value
# viability, T/C values compiled below
Provide the reading as a plain figure in %.

Please review the entries below; each comes with its answer.
- compound: "CC1COCCN1c1cc(C2(O)CC3CCC(C2)O3)c2cnn(-c3ccn[nH]3)c2n1 (configuration not stated) + Nc1ccc(C#CCN(C(=O)Cc2ncc(C(F)(F)F)cc2C(F)(F)F)c2ccc(F)cc2)nn1"
  unit-abbreviation: "%"
  viability, T/C: 64.5
- compound: "COc1cc2cc(C(=O)CCC(=O)O)sc2cc1OC + Nc1ccc(C#CCN(C(=O)Cc2ncc(C(F)(F)F)cc2C(F)(F)F)c2ccc(F)cc2)nn1"
  unit-abbreviation: "%"
  viability, T/C: 105
- compound: "COc1cc(C2c3cc4c(cc3C(OC3OC5COC(C)OC5C(O)C3O)C3COC(=O)C23)OCO4)cc(OC)c1O (configuration not stated) + COC1C(OC(N)=O)C(O)C(Oc2ccc3c(O)c(NC(=O)c4ccc(O)c(CC=C(C)C)c4)c(=O)oc3c2C)OC1(C)C"
  unit-abbreviation: "%"
  viability, T/C: 88.5
- compound: "CC(C)n1c(=O)n(C)c2cnc3cc(F)c(-c4ccc(OCCCN5CCCCC5)nc4)cc3c21 + COC1C(OC(N)=O)C(O)C(Oc2ccc3c(O)c(NC(=O)c4ccc(O)c(CC=C(C)C)c4)c(=O)oc3c2C)OC1(C)C"
  unit-abbreviation: "%"
  viability, T/C: 88.1
- compound: "CCc1cc2c(N3CCc4c(cc(Cn5ccnc5)cc4-c4cn(C)nc4C(F)(F)F)C3=O)cc(C)nc2c(OC)n1 + Cc1cccc(N(C)C(=O)C2C(O)CCN2c2nc(C)cc(C(F)(F)F)c2C#N)c1"
  unit-abbreviation: "%"
  viability, T/C: 74.6
- compound: "O=c1[nH]cc(F)c(=O)[nH]1 + COC1C(OC(N)=O)C(O)C(Oc2ccc3c(O)c(NC(=O)c4ccc(O)c(CC=C(C)C)c4)c(=O)oc3c2C)OC1(C)C"
  unit-abbreviation: "%"
  viability, T/C: 90.3

Please turn your attention to the following entry.
GET /value?item= O=C(Nc1ccc(O)c(NS(=O)(=O)c2ccc(F)cc2)c1)c1ccc(-c2ccccc2)cc1 + Cc1cccc(N(C)C(=O)C2C(O)CCN2c2nc(C)cc(C(F)(F)F)c2C#N)c1 &field=viability, T/C returns 98.1
